Source of measurements: ChEMBL document CHEMBL4706580

Quick reference: deltaH of the listed items.
- EXPERIMENTAL DETAILS: Binding affinity to beta-lactamase VIM-2 expressed in Escherichia coli BL21(DE3) assessed as change in enthalpy at 25 degC by isothermal titration calorimetry
Number in kcal/mol, nothing else.

Reference set, count: 4
LINE NOTATION: O=C(O)c1ccccc1/C=N/n1c(-c2ccc3ccccc3c2)n[nH]c1=S
deltaH [kcal/mol]: -3.3
//
LINE NOTATION: Oc1ccc(/C=N/n2c(-c3cccc(Br)c3)n[nH]c2=S)c(O)c1
deltaH [kcal/mol]: -10.4
//
LINE NOTATION: COc1ccc(O)c(-c2n[nH]c(=S)n2/N=C/c2ccccc2C(=O)O)c1
deltaH [kcal/mol]: -6.3
//
LINE NOTATION: Oc1ccc(/C=N/n2c(-c3ccccc3O)n[nH]c2=S)c(O)c1
deltaH [kcal/mol]: -9.6

Kindly consider the entry below.
Field request: deltaH | item: `O=C(O)c1ccccc1/C=N/n1c(-c2cc(Cl)cc(Cl)c2)n[nH]c1=S` -3.1

====

- EXPERIMENTAL DETAILS: Inhibition of beta-lactamase VIM-2 (unknown origin) expressed in Escherichia coli LZ2310 assessed as potentiation of cefoxitin antibacterial activity by measuring cefoxitin induced diameter of inhibition zone at 80 uM incubated for 18 hrs by disk diffusion method (reference value: 14 mm)
Quick reference: inhibition zone (IZ) of the listed items.
Number in mm, nothing else.

LINE NOTATION: Cc1ccccc1-c1n[nH]c(=S)n1/N=C/c1cccc(O)c1O
PROPERTY MEASURED: inhibition zone (IZ)
RESULT VALUE: 18
//
LINE NOTATION: Oc1ccc(/C=N/n2c(-c3ccccc3-c3ccccc3)n[nH]c2=S)c(O)c1
PROPERTY MEASURED: inhibition zone (IZ)
RESULT VALUE: 14
//
LINE NOTATION: O=C(O)c1ccccc1/C=N/n1c(-c2ccc(-c3ccccc3)cc2)n[nH]c1=S
PROPERTY MEASURED: inhibition zone (IZ)
RESULT VALUE: 15

Kindly consider the entry below.
Field request: inhibition zone (IZ) | item: `Oc1ccc(/C=N/n2c(-c3ccc(-c4ccccc4)cc3)n[nH]c2=S)c(O)c1` 14

====

- EXPERIMENTAL DETAILS: Inhibition of beta-lactamase VIM2 (unknown origin) expressed in Escherichia coli BL21(DE3) using imipenem as substrate by measuring substrate hydrolysis at 100 uM by spectrophotometric analysis
Calls of active or inactive are those of the source. No cut-off for these calls is given here.
PROPERTY MEASURED: inhibition

Reference set, count: 5
LINE NOTATION: O=C(O)c1ccccc1/C=N/n1c(-c2ccc3ccccc3c2O)n[nH]c1=S
inhibition: inactive

LINE NOTATION: Cc1ccccc1-c1n[nH]c(=S)n1/N=C/c1ccccc1O
inhibition: 62%

LINE NOTATION: S=c1[nH]nc(-c2ccccc2)n1/N=C/c1ccccc1
inhibition: inactive

LINE NOTATION: S=c1[nH]nc(-c2ccc(OCc3ccccc3)cc2)n1/N=C/c1ccc(OCc2ccccc2)cc1
inhibition: inactive

LINE NOTATION: S=c1[nH]nc(Cc2ccc3ccccc3c2)n1/N=C/c1ccc(OCc2ccccc2)cc1
inhibition: inactive

Field request: inhibition | item: `Oc1ccc(/C=N/n2c(Cc3ccccc3)n[nH]c2=S)c(O)c1` 30%

Field request: inhibition | item: `S=c1[nH]nc(CCc2ccccc2)n1/N=C/c1ccc(OCc2ccccc2)cc1` inactive

Field request: inhibition | item: `S=c1[nH]nc(-c2ccc(Cl)cc2)n1/N=C/c1ccc(OCc2ccccc2)cc1` inactive

Field request: inhibition | item: `O=C(O)c1ccccc1/C=N/n1c(-c2cccc(Br)c2)n[nH]c1=S` 35%

Field request: inhibition | item: `Cc1ccccc1-c1n[nH]c(=S)n1/N=C/c1ccccc1C#N` inactive

Field request: inhibition | item: `Cc1ccccc1-c1n[nH]c(=S)n1/N=C/c1ccc(F)cc1` inactive

====

- EXPERIMENTAL DETAILS: Inhibition of beta-lactamase CphA (unknown origin) expressed in Escherichia coli BL21(DE3) using imipenem as substrate by measuring substrate hydrolysis by spectrophotometric analysis
Quick reference: pKi of the listed items.
Please keep in mind that pKi is minus log10 of the molar concentration; only the number is needed.

Field request: pKi | item: `Cc1ccccc1-c1n[nH]c(=S)n1/N=C/c1cccc(-c2cccc(C(=O)O)c2)c1` 4.40

====

Quick reference: inhibition zone (IZ) of the listed items.
- EXPERIMENTAL DETAILS: Inhibition of beta-lactamase VIM-2 (unknown origin) expressed in Escherichia coli XL-1 assessed as potentiation of cefoxitin antibacterial activity by measuring cefoxitin induced diameter of inhibition zone at 320 uM incubated for 18 hrs by disk diffusion method (reference value: 8 mm)
Number in mm, nothing else.

Reference set, count: 3
LINE NOTATION: O=C(O)c1ccccc1/C=N/n1c(-c2cccc(-c3ccccc3)c2)n[nH]c1=S
inhibition zone (IZ), mm: 9
//
LINE NOTATION: O=C(O)c1ccccc1/C=N/n1c(-c2cccc(Cl)c2)n[nH]c1=S
inhibition zone (IZ), mm: 8
//
LINE NOTATION: S=c1[nH]nc(-c2ccc(-c3ccccc3)cc2)n1/N=C/c1ccc(OCc2ccccc2)cc1
inhibition zone (IZ), mm: 10

Kindly consider the entry below.
Field request: inhibition zone (IZ) | item: `O=C(O)c1ccccc1/C=N/n1c(-c2ccccc2O)n[nH]c1=S` 10

====

- EXPERIMENTAL DETAILS: Inhibition of beta-lactamase VIM2 (unknown origin) expressed in Escherichia coli BL21(DE3) using imipenem as substrate by measuring substrate hydrolysis at 200 uM by spectrophotometric analysis
Activity calls are given as the source filed them. The calls are words filed in the database; no cut-off is given here.
PROPERTY MEASURED: inhibition

Reference set, count: 4
LINE NOTATION: S=c1[nH]nc(-c2cccc(Cl)c2)n1/N=C/c1ccc(OCc2ccccc2)cc1
inhibition: inactive
--
LINE NOTATION: S=c1[nH]nc(-c2cc3ccccc3[nH]2)n1/N=C/c1ccc(OCc2ccccc2)cc1
inhibition: inactive
--
LINE NOTATION: Cc1ccccc1-c1n[nH]c(=S)n1/N=C/c1ccccc1[N+](=O)[O-]
inhibition: inactive
--
LINE NOTATION: S=c1[nH]nc(CCc2ccccc2)n1/N=C/c1ccc(OCc2ccccc2)cc1
inhibition: inactive

Field request: inhibition | item: `Oc1ccc(/C=N/n2c(-c3ccc(OCc4ccccc4)cc3)n[nH]c2=S)c(O)c1` inactive

Field request: inhibition | item: `S=c1[nH]nc(Cc2ccc3ccccc3c2)n1/N=C/c1ccc(OCc2ccccc2)cc1` inactive

Field request: inhibition | item: `Cc1ccccc1-c1n[nH]c(=S)n1/N=C/c1ccc(O)cc1` inactive

Field request: inhibition | item: `S=c1[nH]nc(-c2cccc(-c3ccccc3)c2)n1/N=C/c1ccc(OCc2ccccc2)cc1` inactive

Field request: inhibition | item: `O=C(O)c1ccccc1/C=N/n1c(-c2cccc(Cl)c2)n[nH]c1=S` inactive

Field request: inhibition | item: `O=C(O)c1ccccc1/C=N/n1c(-c2ccc3ccccc3c2O)n[nH]c1=S` inactive

Field request: inhibition | item: `Cc1ccccc1-c1n[nH]c(=S)n1/N=C/c1ccc(OCc2ccccc2)cc1` inactive

====

- EXPERIMENTAL DETAILS: Binding affinity to beta-lactamase VIM-2 expressed in Escherichia coli BL21(DE3) assessed as association constant at 25 degC by isothermal titration calorimetry
PROPERTY MEASURED: Ka

Reference set, count: 2
LINE NOTATION: O=C(O)c1ccccc1/C=N/n1c(-c2ccc3ccccc3c2)n[nH]c1=S
RESULT VALUE: 1.4 10^6/M
//
LINE NOTATION: O=C(O)c1ccccc1/C=N/n1c(-c2cc(Cl)cc(Cl)c2)n[nH]c1=S
RESULT VALUE: 1.2 10^6/M

Field request: Ka | item: `COc1ccc(O)c(-c2n[nH]c(=S)n2/N=C/c2ccccc2C(=O)O)c1` 2.6 10^6/M

Field request: Ka | item: `Oc1ccc(/C=N/n2c(-c3ccccc3O)n[nH]c2=S)c(O)c1` 3.4 10^6/M

Field request: Ka | item: `O=C(O)c1ccccc1/C=N/n1c(-c2ccccc2)n[nH]c1=S` 1.9 10^6/M

Field request: Ka | item: `O=C(O)c1ccccc1/C=N/n1c(-c2cccc(-c3ccccc3)c2)n[nH]c1=S` 1.5 10^7/M

Field request: Ka | item: `Oc1ccc(/C=N/n2c(-c3cccc(Br)c3)n[nH]c2=S)c(O)c1` 3.1 10^6/M

Field request: Ka | item: `Cc1ccccc1-c1n[nH]c(=S)n1/N=C/c1ccc(O)c(C(=O)O)c1` 7.7 10^6/M

====

- EXPERIMENTAL DETAILS: Inhibition of beta-lactamase NDM1 (unknown origin) expressed in Escherichia coli BL21(DE3) using cefotaxime/nitrocefin as substrate by measuring substrate hydrolysis by spectrophotometric analysis
Quick reference: Ki of the listed items.
Number in µM, nothing else.

LINE NOTATION: O=C(O)c1ccccc1/C=N/n1c(C(c2ccccc2)c2ccccc2)n[nH]c1=S
PROPERTY MEASURED: Ki
UNIT SPEC: µM
RESULT VALUE: 4.1

LINE NOTATION: O=C(O)c1ccccc1/C=N/n1c(-c2ccc3ccccc3c2)n[nH]c1=S
PROPERTY MEASURED: Ki
UNIT SPEC: µM
RESULT VALUE: 2.3

LINE NOTATION: O=C(O)c1ccccc1/C=N/n1c(-c2cccc(-c3ccccc3)c2)n[nH]c1=S
PROPERTY MEASURED: Ki
UNIT SPEC: µM
RESULT VALUE: 4.2

LINE NOTATION: O=C(O)c1ccccc1/C=N/n1c(-c2cc(Cl)cc(Cl)c2)n[nH]c1=S
PROPERTY MEASURED: Ki
UNIT SPEC: µM
RESULT VALUE: 30

Field request: Ki | item: `O=C(O)c1ccccc1/C=N/n1c(-c2ccc(-c3ccccc3)cc2)n[nH]c1=S` 1.3
